Target: T1, HLA-A*01:01 (human)
T1 construct: MHC class I monomer first loaded with a UV-sensitive peptide (not identified) that is cleaved by UV irradiation and exchanged for the tested peptide; captured on streptavidin plates, detected with anti-β2m; also called peptide-receptive MHC molecules
Assay: UV-ligand exchange, anti-b2m ELISA
PARAMETER MEASURED: peptide exchange yield

# count of solved cases: 2
>  <BINDER>
STALSILLL

>  <peptide exchange yield>
20 to 50%

$$$$
>  <BINDER>
VSDSTTEITY

>  <peptide exchange yield>
50 to 75%

$$$$

Batch: peptide exchange yield for all items listed.
1. ENSIEDLQY
2. ASDHWRGRY
3. STDSASYY
4. QTYMDGLLHY
5. VLDPMLDFY

Result string:
1. 50 to 75%
2. 50 to 75%
3. > 75%
4. > 75%
5. > 75%

Query string: Return value of peptide exchange yield for input LAFYYGMY , no commentary.
Result string: 20 to 50%
